Assay: Serum DHA pharmacokinetics after 4 weeks of supplementation with DHA formulations
Conditions: human, in vivo

STRUCTURE_SMILES	concentration at 0 weeks / µg/mL
CC/C=C\C/C=C\C/C=C\C/C=C\C/C=C\C/C=C\CCC(=O)O	106

----------
Assay: Serum DHA pharmacokinetics after 4 weeks of supplementation with DHA formulations
Settings: human, in vivo

MOLECULE	concentration at 4 weeks [µg/mL]
CC/C=C\C/C=C\C/C=C\C/C=C\C/C=C\C/C=C\CCC(=O)O [DHA 500 mg, docosahexaenoic acid]	108
